Hello, the source for this data is ChEMBL document CHEMBL1201862, in case you need it.

# System: HOP-92
# assayName: NCI tumour cell line growth inhibition, 48 h
Activity calls are given as the source filed them. No stated cut-off is given here; in the data, active = GI50 up to about 1.1 µM and inactive = higher.
Field: GI50. Provide a value for each of the compounds that follow.

Simply: Cc1cc(C)n(C(=O)CSc2nnc(SCC(=O)n3nc(C)cc3C)s2)n1 , HOP-92, GI50 = > 100 µM (inactive)

Simply: c1cc(CNCCN2CCNCC2)ccn1 , HOP-92, GI50 = > 100 µM (inactive)

Simply: CC(C)C(=O)CC(c1ccc(Cl)cc1)N1N=C(C(C)C)CC1c1ccc(Cl)cc1 (stereo not drawn) , HOP-92, GI50 = > 86.3 µM (inactive)

Simply: C=CCn1c(=O)c(C)cn(/C(=C/C(=O)OCC)C(=O)OCC)c1=O , HOP-92, GI50 = 3.52 µM (inactive)

Simply: c1cncc(-c2cc(-c3cc(-c4cccnc4)[nH]n3)n[nH]2)c1 , HOP-92, GI50 = > 100 µM (inactive)

Simply: Cc1cc(Br)cc(C)c1NC(=O)C(=O)Nn1c(S)nc2ccccc2c1=O , HOP-92, GI50 = > 100 µM (inactive)

Simply: CC(C)(CN1CCCCC1)C(=O)CC(SCCS(=O)(=O)O)c1ccc(Cl)cc1 (stereo not drawn) , HOP-92, GI50 = 2.26 µM (inactive)

Simply: OC1(c2ccc(Cl)cc2)C(N2CCCC2)c2ccccc2C2=NCCN21 (stereo not drawn) , HOP-92, GI50 = 12.6 µM (inactive)
